Tested on: USP8 MIT domain
Test: Peptide-phage display-based deep mutational scanning (DMS), USP8 MIT domain
Format: binding, human
Details: sheet S3.B_ProP-PD_pairs; bait USP8_MIT__P40818_1_142; ratio within the wild-type/mutant pair, larger over smaller averaged fraction (direction from fraction_wt and fraction_mut)
Tick MET if hit_pair_ratio is 6 or greater. Tick NOT MET if hit_pair_ratio is less than 6.

stdin: Please tell me: is the sequence `SEGSDIESRIAALRAA` at or over 6 in terms of hit_pair_ratio?
stdout: MET

stdin: Please tell me: is the sequence `MDDDYEAYHSMFLSLL` at or over 6 in terms of hit_pair_ratio?
stdout: MET

stdin: Please tell me: is the sequence `MDDDYEAYASLFLSLL` at or over 6 in terms of hit_pair_ratio?
stdout: NOT MET

stdin: Please tell me: is the sequence `MDDDYEAYFSLFLSLL` at or over 6 in terms of hit_pair_ratio?
stdout: MET

stdin: Please tell me: is the sequence `MDDDYEAYHSLFLSSL` at or over 6 in terms of hit_pair_ratio?
stdout: MET

stdin: Please tell me: is the sequence `MDDDYEAYHSKFLSLL` at or over 6 in terms of hit_pair_ratio?
stdout: MET
